- Test system: myelin
- assay remarks: Myelin staining of mouse brain cryosections, label pattern comparison
- condition notes: dye on labeled mouse brain cryosections

compound structure	measurement target	emission wavelength (Em)
CCCCN(CCCC)c1ccc(C=CC=CC=Cc2cc[n+](CCC[N+](CC)(CC)CC)cc2)cc1	myelin	734 nm
CCCCN(CCCC)c1ccc(C=Cc2cc[n+](CCC[N+](CC)(CC)CC)cc2)cc1	myelin	594 nm
